- target: Chymase (Homo sapiens, UniProt P23946)
- Sequence (P23946 whole entry): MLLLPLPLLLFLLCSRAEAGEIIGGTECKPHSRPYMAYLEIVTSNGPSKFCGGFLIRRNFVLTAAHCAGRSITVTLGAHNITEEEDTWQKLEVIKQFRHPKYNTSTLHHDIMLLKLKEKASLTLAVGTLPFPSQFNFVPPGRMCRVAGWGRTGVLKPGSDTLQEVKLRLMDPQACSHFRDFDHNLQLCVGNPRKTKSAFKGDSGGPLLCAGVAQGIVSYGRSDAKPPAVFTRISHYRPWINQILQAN
- method notes: Substrate activity at recombinant human chymase expressed in Pichia pastoris X-33 cells assessed as ratio of Kcat/Km by spectrophotometry analysis
- Type: ADME
Square brackets hold non-standard residues; d marks the D form. Peptide text beside a SMILES is read from it. * marks the point of attachment. pNA = O=[N+]([O-])c1ccc(N*)cc1; Nle = CCCC[C@H](N)C(=O)O
observable: Kcat/Km (×10⁴ /M/s)

C[C@@H](O)[C@H](NC(=O)[C@@H](N)Cc1ccccc1)C(=O)N[C@@H](CC(=O)O)C(=O)N[C@@H](Cc1ccc(O)cc1)C(=O)Nc1ccc([N+](=O)[O-])cc1 (H-FTDY-pNA) = 3.8
C[C@@H](O)[C@H](NC(=O)[C@@H](NC(=O)[C@@H](N)CCCNC(=N)N)[C@@H](C)O)C(=O)N[C@@H](Cc1ccc(O)cc1)C(=O)Nc1ccc([N+](=O)[O-])cc1 (H-RTTY-pNA) = 3.4
C[C@@H](O)[C@H](NC(=O)[C@H](CCC(=O)O)NC(=O)[C@@H](N)CCCNC(=N)N)C(=O)N[C@@H](Cc1ccc(O)cc1)C(=O)Nc1ccc([N+](=O)[O-])cc1 (H-RETY-pNA) = 3.2
CCCC[C@H](N)C(=O)N[C@H](C(=O)N[C@@H](CC(=O)O)C(=O)N[C@@H](Cc1ccc(O)cc1)C(=O)Nc1ccc([N+](=O)[O-])cc1)[C@@H](C)O (H-[Nle]TDY-pNA) = 4

From: ChEMBL document CHEMBL4376864
